Ref: paper PMC7044277

TARGET SYSTEM: DRD2 F1103.28L (Homo sapiens, UniProt P14416, F110L)
Construct: expressed in transfected cells; host or cells: HEK293T (ATCC CRL-11268)
Sequence (P14416 whole entry F110L): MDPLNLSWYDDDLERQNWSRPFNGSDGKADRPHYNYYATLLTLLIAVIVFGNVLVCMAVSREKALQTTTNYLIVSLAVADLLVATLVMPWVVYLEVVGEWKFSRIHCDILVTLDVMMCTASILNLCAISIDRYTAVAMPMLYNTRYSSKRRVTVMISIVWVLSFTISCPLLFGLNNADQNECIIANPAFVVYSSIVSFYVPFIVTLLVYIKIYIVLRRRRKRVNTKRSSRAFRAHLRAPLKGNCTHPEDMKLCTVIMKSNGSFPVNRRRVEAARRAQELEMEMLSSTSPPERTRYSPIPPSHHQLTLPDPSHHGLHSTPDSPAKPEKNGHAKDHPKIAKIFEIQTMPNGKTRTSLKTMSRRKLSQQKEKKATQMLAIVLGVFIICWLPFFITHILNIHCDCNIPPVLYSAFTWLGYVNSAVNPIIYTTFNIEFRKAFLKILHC
TEST PROTOCOL: β-arrestin2 recruitment (Tango), mutant
Assay type: cell-based
CONDITION DETAILS: read-out: Emax relative to quinpirole response
READOUT KIND: Emax (%)
The reply should be a number in %, with the unit left off.

// query GET /values?readout=Emax&item= CCOc1cccc2cc(C(C)NCC3(O)CCCCC3)oc12 (stereo not shown)
// result 4.32

// query GET /values?readout=Emax&item= CCOc1cccc2cc(C(C)NCC3(O)CCCCCCC3)oc12 (stereo not shown)
// result 12.9

// query GET /values?readout=Emax&item= CCOc1cccc2cc(C(C)NCC3(O)CCCCCC3)oc12 (stereo not shown)
// result 25.8

// query GET /values?readout=Emax&item= CCOc1cccc2cc([C@@H](C)NCC3(O)CCCCC3)oc12
// result 7.76

* * *

TARGET SYSTEM: DRD3 wild-type (Homo sapiens)
Sequence (P35462 whole entry): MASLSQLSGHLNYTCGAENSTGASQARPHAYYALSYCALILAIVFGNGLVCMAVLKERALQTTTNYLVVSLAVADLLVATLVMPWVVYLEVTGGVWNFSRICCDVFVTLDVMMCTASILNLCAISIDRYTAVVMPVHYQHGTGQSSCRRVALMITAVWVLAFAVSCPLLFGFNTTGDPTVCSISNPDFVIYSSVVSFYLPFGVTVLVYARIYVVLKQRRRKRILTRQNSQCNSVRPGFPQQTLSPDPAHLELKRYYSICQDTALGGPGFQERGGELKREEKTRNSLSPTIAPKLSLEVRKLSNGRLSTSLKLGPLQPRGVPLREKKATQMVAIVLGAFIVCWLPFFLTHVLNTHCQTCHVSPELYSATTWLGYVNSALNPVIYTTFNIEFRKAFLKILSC
TEST PROTOCOL: Radioligand competition binding, [3H]-N-methylspiperone
Hi there, I'd appreciate the recorded Ki for every entry that follows.
The reply should be a number in nM, with the unit left off.

// query GET /values?readout=Ki&item= CC(CCc1ccccc1[N+](=O)[O-])NCC1(O)CCCCC1 (centres unmarked)
// result 174

// query GET /values?readout=Ki&item= OC1(c2ccc(Cl)cc2)CCN(Cc2c[nH]c3ccccc23)CC1
// result 186

* * *

TARGET SYSTEM: DRD3 (Homo sapiens, UniProt P35462)
Sequence (P35462 whole entry): as the sequence (P35462 whole entry) above
TEST PROTOCOL: Gαi/o-mediated cAMP inhibition (GloSensor)
Type: cell-based
READOUT KIND: EC50 (nM)
The reply should be a number in nM, with the unit left off.

// query Short answer please: EC50, DRD3 (Homo sapiens, UniProt P35462), entry CC(CCc1ccccc1[N+](=O)[O-])NCC1(O)CCCCC1 (stereo not shown)
// result 1.96

* * *

Hi there, I'd appreciate the recorded EC50 for every entry that follows.
TARGET SYSTEM: DRD3 (Homo sapiens, UniProt P35462)
TEST PROTOCOL: β-arrestin2 recruitment (Tango)
Format: cell-based
CONDITION DETAILS: DRD3; Tango; read-out: EC50 ± SEM

// query Short answer please: EC50, DRD3 (Homo sapiens, UniProt P35462), entry CCOc1cccc2cc(C(C)NCC3(O)CCCC3)oc12.Cl (racemic)
// result > 10 µM

// query Short answer please: EC50, DRD3 (Homo sapiens, UniProt P35462), entry CCCOc1cccc2cc(C(C)NCC3(O)CCCCC3)oc12.Cl (stereo not drawn)
// result 2.07 µM

// query Short answer please: EC50, DRD3 (Homo sapiens, UniProt P35462), entry CCOc1cccc2cc(C(C)NCC3(O)CC3)oc12.Cl (racemic)
// result > 10 µM

// query Short answer please: EC50, DRD3 (Homo sapiens, UniProt P35462), entry CC(NCC1(O)CCCCC1)c1cc2cccc(O)c2o1.Cl (stereo not drawn)
// result > 10 µM

// query Short answer please: EC50, DRD3 (Homo sapiens, UniProt P35462), entry CCOc1cccc2cc(C(C)NCC3(O)CCCCC3)oc12 (stereo not drawn)
// result 0.708 µM

// query Short answer please: EC50, DRD3 (Homo sapiens, UniProt P35462), entry CCOc1cccc2cc(C(C)NCCO)oc12 (stereo not drawn)
// result > 10 µM
